# Pre-emergence activity (GR80) CONAR annotations
# System: CONAR (field bindweed)
# Procedure Details: Pre-emergence herbicidal activity, warm season
# Type: in vivo, Convolvulus arvensis
# Experimental Setup: GR80 = lowest tested rate (300, 100, 30, 10 g/ha) with 80% or greater inhibition; approx. 14 days after treating; 30/21° C.
Readout Type: Pre-emergence activity (GR80) CONAR (g/ha)

Entry Smiles | Readout Type | Val
O=C(N1CCCC1)n1cnc(S(=O)(=O)C(F)F)n1 | Pre-emergence activity (GR80) CONAR | 300
CN(Cc1ccccc1)C(=O)n1cnc(S(=O)(=O)C(F)(F)Cl)n1 | Pre-emergence activity (GR80) CONAR | 300
CCSC(F)(F)S(=O)(=O)c1ncn(C(=O)N(C)C)n1 | Pre-emergence activity (GR80) CONAR | 300
CCSC(F)(F)S(=O)(=O)c1ncn(C(=O)N(CC)CC)n1 | Pre-emergence activity (GR80) CONAR | 100
CCSC(F)(F)S(=O)(=O)c1ncn(C(=O)N2CCCC2)n1 | Pre-emergence activity (GR80) CONAR | 300

Sourced from patent US6461997B1
